Items are presented alongside their recorded fold increase over parent (IgG KD, comparative binding affinity).
biological target: T1, cynomolgus MCSP D3 (cynomolgus); assay: ratio of ProteOn IgG KD against parental M4-3/ML2 IgG
T1 construct: domain: D3; also called Cyno MCSP; cynomolgus homologue
Respond numerically; units are fold and should not be typed.

Binder	Number
M4-3(C1)/ML2(G3) IgG (antibody, V domains shown, Human IgG1; also called MCSP M4-3(C1)ML2(G3)) VH: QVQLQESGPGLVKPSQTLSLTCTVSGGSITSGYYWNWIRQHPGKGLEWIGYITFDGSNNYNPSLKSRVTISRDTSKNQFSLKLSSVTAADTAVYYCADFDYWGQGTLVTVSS VL: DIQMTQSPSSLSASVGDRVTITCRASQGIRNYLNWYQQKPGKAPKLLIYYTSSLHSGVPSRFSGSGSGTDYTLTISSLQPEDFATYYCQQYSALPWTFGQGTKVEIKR	10
M4-3/ML2 (C5/G3) IgG (antibody, V domains shown, Human IgG1 format; also called MCSP ML2(C5-G3)) VH: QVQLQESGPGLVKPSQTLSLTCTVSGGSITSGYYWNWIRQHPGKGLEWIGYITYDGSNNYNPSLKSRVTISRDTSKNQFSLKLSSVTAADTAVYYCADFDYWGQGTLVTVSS VL: DIQMTQSPSSLSASVGDRVTITCRASRGIREYLNWYQQKPGKAPKLLIYYTGSLHSGVPSRFSGSGSGTDFTLTISSLQPEDFATYYCQQYSALPWTFGQGTKVEIK	2
M4-3(C1)/ML2(E10) IgG (antibody, V domains shown, Human IgG1 format) VH: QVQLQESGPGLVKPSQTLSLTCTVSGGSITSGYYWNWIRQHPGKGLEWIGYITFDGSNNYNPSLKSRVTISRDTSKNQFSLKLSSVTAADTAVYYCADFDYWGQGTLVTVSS VL: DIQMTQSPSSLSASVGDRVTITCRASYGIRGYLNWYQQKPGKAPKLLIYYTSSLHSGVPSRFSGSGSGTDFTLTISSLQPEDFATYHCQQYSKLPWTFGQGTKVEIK	3.3
M4-3(C1)/ML2(C5) IgG (antibody, V domains shown, Human IgG1 format) VH: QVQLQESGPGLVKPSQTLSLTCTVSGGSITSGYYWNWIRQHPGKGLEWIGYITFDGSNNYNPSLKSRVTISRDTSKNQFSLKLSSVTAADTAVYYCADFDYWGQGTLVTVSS VL: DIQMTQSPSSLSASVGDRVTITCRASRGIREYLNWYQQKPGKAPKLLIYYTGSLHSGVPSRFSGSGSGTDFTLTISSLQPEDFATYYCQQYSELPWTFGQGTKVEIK	6.7

Moving on to another binder below.
Challenge: What measured fold increase over parent (IgG KD, comparative binding affinity) goes with M4-3(D6)/ML2 IgG (antibody, V domains shown, Human IgG1 format) VH: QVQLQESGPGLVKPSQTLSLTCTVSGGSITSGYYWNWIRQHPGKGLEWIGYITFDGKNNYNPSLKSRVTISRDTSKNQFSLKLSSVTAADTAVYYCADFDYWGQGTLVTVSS VL: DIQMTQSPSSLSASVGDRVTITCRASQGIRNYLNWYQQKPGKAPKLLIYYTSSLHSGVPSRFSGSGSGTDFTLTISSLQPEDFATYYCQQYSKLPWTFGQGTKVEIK ?
Response given: 2
